Target: T1, human CD166 protein (human, UniProt Q13740 28-526, limits assumed)
T1 construct: Isolated human CD166 protein coated on ELISA plates; also called ALCAM
T1 sequence (looked up): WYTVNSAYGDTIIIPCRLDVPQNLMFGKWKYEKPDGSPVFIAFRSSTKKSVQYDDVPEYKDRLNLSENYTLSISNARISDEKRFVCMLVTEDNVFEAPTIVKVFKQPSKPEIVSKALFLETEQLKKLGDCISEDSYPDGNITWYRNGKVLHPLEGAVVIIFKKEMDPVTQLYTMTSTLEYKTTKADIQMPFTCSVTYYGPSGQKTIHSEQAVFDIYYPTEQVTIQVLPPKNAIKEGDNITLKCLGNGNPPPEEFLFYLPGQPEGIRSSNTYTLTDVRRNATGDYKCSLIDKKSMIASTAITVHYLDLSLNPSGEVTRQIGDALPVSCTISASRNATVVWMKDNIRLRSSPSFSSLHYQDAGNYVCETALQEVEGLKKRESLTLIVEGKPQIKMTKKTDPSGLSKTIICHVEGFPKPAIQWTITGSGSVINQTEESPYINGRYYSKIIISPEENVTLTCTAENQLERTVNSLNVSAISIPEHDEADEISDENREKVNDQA
Experiment: ELISA, human CD166 protein coated, anti-human FAB-peroxidase

- BINDER: "CD166-M9_vK3a/HcC (antibody, V domains shown, Humanized M9) VH: QITLKESGPTLVKPTQTLTLTCTFSGFSLSTYGMGVGWIRQPPGKALEWLANIWWSEDKHYSPSLKSRLTITKDTSKNQVVLTITNVDPVDTATYYCVQIDYGNDYAFTYWGQGTLVTVSS VL: DIVMTQSPLSLPVTPGEPASISCRSSQSLLHSNGITYLYWYLQKPGQSPQLLIYQMSNRASGVPDRFSGSGSGTDFTLKISRVEAEDVGVYYCAQNLELPYTFGQGTKLEIK"
  binding result: "binds"

Ref: patent US20160355587A1
